B1: TOR1AIP2 (parent)
chain: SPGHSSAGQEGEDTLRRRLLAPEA

Variants of: B1
assay_summary: protein stability index of a GFP-peptide fusion (GPS, HEK-293T) (PSI 1-6); higher = more stable;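 further: lentivirally expressed fusions sorted by FACS into six bins by GFP to DsRed ratio, PSI derived from sequencing read proportions per bin multiplied by bin number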
condition_label: c terminus: a fixed tail appended
Binary classification by protein stability index, with 4 as an inclusive lower bound for yes; all other cases are no.

L20V yes

// query Is protein stability index at least 4? Consider H4K
// result no

// query Reported protein stability index at or above 4? G11Q
// result yes

// query Kindly determine if protein stability index recorded for P22L is above or exactly 4.
// result yes

// query Does S1V have a reported protein stability index of at least 4?
// result yes

// query Please indicate if the recorded protein stability index for P22K meets or exceeds 4.
// result yes
